- TESTED_ON: PI3Kδ (Homo sapiens)
- Construct: Full length p110 subunits of PI3k α, β and δ, N-terminally labeled with polyHis tag; polyHis (N)
- Sequence (O00329 whole entry): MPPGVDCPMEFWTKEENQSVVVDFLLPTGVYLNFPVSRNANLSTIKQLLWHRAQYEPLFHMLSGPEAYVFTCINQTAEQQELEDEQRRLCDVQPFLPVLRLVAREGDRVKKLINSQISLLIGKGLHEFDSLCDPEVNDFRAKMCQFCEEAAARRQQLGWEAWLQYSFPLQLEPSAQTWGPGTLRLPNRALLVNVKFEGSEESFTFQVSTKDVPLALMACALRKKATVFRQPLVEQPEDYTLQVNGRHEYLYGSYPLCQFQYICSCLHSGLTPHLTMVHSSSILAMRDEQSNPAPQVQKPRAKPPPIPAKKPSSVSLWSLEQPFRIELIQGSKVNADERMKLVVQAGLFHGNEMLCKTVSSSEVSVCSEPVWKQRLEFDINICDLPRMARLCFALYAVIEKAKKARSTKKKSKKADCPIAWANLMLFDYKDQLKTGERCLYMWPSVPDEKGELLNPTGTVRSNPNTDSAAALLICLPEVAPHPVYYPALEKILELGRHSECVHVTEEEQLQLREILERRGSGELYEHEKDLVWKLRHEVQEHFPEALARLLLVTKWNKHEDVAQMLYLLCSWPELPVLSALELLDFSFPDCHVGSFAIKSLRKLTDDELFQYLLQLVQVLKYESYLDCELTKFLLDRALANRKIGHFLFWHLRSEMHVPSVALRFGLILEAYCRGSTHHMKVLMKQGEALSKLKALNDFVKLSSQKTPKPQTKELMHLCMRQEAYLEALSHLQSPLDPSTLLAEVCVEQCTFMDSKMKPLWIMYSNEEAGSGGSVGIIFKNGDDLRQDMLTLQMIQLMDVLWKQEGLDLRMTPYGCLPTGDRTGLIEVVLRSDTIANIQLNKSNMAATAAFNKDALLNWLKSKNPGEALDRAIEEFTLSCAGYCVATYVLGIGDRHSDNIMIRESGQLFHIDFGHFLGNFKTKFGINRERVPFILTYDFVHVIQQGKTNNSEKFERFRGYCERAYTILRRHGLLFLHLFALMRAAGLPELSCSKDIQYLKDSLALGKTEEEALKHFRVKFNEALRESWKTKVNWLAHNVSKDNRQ
- Sequence (P27986 whole entry partner): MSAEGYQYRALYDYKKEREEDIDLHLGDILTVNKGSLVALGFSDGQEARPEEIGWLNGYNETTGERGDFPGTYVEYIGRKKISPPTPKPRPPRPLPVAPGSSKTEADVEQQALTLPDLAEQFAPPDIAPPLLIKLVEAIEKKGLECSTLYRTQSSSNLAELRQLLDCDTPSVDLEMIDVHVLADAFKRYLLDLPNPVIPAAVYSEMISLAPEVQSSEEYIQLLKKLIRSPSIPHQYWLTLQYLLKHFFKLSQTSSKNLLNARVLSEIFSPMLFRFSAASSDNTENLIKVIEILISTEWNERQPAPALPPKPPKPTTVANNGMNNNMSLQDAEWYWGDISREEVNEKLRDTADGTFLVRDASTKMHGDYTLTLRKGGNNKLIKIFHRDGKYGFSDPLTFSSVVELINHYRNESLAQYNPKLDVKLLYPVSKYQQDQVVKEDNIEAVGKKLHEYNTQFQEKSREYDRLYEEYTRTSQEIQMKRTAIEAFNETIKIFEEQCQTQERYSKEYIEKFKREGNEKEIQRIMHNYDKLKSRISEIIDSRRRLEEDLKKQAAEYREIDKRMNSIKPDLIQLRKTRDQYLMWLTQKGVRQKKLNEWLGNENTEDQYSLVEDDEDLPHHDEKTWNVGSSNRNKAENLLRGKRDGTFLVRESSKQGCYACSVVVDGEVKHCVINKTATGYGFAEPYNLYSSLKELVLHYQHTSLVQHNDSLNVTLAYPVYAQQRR
- METHOD_DESCRIPTION: In vitro enzyme assay of recombinant PI3K (residual ATP bioluminescence)
REPORTED_ENDPOINT: log10 IC50 (log10 of the value in nM)
Parameter value (number): base-10 log of IC50 in nM.

Before answering, review these 3 worked examples.
COMPOUND	TESTED_ON	log10 IC50
Cc1ccccc1-c1nc2c(C)cccc2cc1CNc1ncnc2[nH]cnc12	PI3Kδ (Homo sapiens)	1.92
Fc1ccc2nc(-c3ccccc3Cl)c(CNc3ncnc4[nH]cnc34)cc2c1	PI3Kδ (Homo sapiens)	3.23
C[C@H](Nc1ncnc2[nH]cnc12)c1cc2cccc(Cl)c2nc1-c1cscn1	PI3Kδ (Homo sapiens)	1.20

Given the entry "C[C@H](Nc1ncnc2[nH]cnc12)c1nc2cccc(Cl)c2cc1-c1cccc(F)c1" , what log10 IC50 was observed with PI3Kδ (Homo sapiens)?
0.70

Given the entry "Clc1cccc2cc(CNc3ncnc4[nH]cnc34)c(Oc3ccccc3)nc12" , what log10 IC50 was observed with PI3Kδ (Homo sapiens)?
2.10

Given the entry "Clc1cccc2cc(CNc3ncnc4[nH]ccc34)c(-c3ccccc3)nc12" , what log10 IC50 was observed with PI3Kδ (Homo sapiens)?
2.43

Given the entry Cc1ccccc1-c1nc2c(C)cccc2cc1C(C)Oc1ncnc2[nH]cnc12 (centres unmarked) , what log10 IC50 was observed with PI3Kδ (Homo sapiens)?
1.08

Given the entry "Fc1ccc(OCc2ccccc2)c(-c2nc3c(Cl)cccc3cc2CNc2ncnc3[nH]cnc23)c1" , what log10 IC50 was observed with PI3Kδ (Homo sapiens)?
1.49
